- tested.target: Estrogen receptor beta (Homo sapiens) (UniProt Q92731)
- Sequence (Q92731 whole entry, looked up): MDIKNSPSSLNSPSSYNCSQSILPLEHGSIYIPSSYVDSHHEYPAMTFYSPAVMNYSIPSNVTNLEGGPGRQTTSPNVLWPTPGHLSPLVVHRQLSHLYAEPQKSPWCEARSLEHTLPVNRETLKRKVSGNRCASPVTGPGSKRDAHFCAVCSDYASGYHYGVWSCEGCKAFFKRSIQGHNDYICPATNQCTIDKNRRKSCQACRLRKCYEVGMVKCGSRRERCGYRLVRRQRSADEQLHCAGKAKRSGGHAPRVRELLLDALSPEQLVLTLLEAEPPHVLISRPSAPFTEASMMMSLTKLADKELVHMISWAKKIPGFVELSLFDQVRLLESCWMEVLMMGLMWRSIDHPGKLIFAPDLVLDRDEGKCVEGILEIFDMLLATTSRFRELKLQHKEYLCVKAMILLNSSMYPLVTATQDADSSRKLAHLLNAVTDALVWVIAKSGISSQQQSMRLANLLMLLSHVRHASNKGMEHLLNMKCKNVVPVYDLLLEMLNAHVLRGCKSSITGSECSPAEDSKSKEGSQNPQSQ
- assay: displacement of fluorescent estrogen from ERbeta – cell-based, Cos7 ERbeta-GFP, flow cytometry, primary screen (AID 1210);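 also: 0% = DMSO vehicle wells and 100% = complete loss of labeled estradiol signal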
- settings: fluorescent estrogen binding, at 10 µM
The source made the active and inactive calls.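 The calls were made as follows: active = blocks over 70% of labeled estradiol binding at 10 µM, or over a set limit at 100 nM; inactive = the rest.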
The reply should name one outcome from active, inactive

Before answering, review these 6 worked examples.
Cc1cc(C(C)CO)cc(C(C)(C)C)c1O (configuration not stated) | inactive
Nc1ncnc2c1ncn2C1CCC(CO)C(O)C1 (configuration not stated) | active
COc1ccc2cc3c(N)nn(C(=O)Cc4ccc(Cl)cc4)c3nc2c1 | inactive
COc1ccc2c(c1OC)C(=O)N1N=C(c3ccc(O)cc3)CC21 (configuration not stated) | inactive
C/C(N)=C(/C#N)C(=O)CSc1nnc(Nc2ccccc2C)s1 | inactive
COc1ccc(-n2c(SCC(=O)Nc3nccs3)nc3sc4c(c3c2=O)CCN(C)C4)cc1 | inactive

QUERY: So what was the verdict on "Cc1cc(NC(=O)CSc2cn(CCNC(=O)c3ccc(Cl)cc3)c3ccccc23)no1" in this test?
RESULT: inactive

QUERY: So what was the verdict on "O=C(COC(=O)c1cccc(S(=O)(=O)N2CCc3ccccc3C2)c1)NCc1ccco1" in this test?
RESULT: inactive

QUERY: So what was the verdict on "CCOC(=O)c1cc2c(c(CSc3nc4ccccc4c(=O)n3Cc3ccco3)c1)OCOC2" in this test?
RESULT: inactive

QUERY: So what was the verdict on "Cc1c(Cc2ccccc2)c(=O)n2c([nH]c3ccccc32)c1C#N" in this test?
RESULT: inactive

----------
- tested.target: Estrogen receptor beta (Homo sapiens) (UniProt Q92731)
- assay: displacement of fluorescent estrogen from ERbeta – cell-based, Cos7 ERbeta-GFP, flow cytometry, primary screen (AID 1210);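 also: 0% = DMSO vehicle wells and 100% = complete loss of labeled estradiol signal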
- settings: fluorescent estrogen binding, at 10 µM, stronger effect = higher value
observable: inhibition (%)
Entry rule: numbers only, all in %.

COc1ccc(CNC(=O)c2cc(-c3cccs3)on2)cc1 | 39
CC1CCc2c(sc(NC(=O)c3ccc(Cn4cc([N+](=O)[O-])cn4)o3)c2C#N)C1 (stereo unspecified) | 19
Cc1nc(-c2ccc(O)c(O)c2)cs1 | 31
COc1ccc(C2CC(c3cccs3)=NN2c2ccc(C=O)cc2)cc1 (stereo unspecified) | 42
Oc1ccc(C=Nc2ccc(N3CCOCC3)cc2)c(O)c1 | 51

QUERY: What does the record list as inhibition for COc1cc(C2Nc3c(F)cccc3C3C=CCC32)cc(Br)c1OC (stereo unspecified) ?
RESULT: 0

QUERY: What does the record list as inhibition for "COc1ccccc1N1CCN(C(=O)c2ccc3nc(-c4ccco4)c(-c4ccco4)nc3c2)CC1" ?
RESULT: 60

QUERY: What does the record list as inhibition for CCC(Oc1ccc2c3c(c(=O)oc2c1C)CCC3)C(=O)OC (stereo unspecified) ?
RESULT: 15

QUERY: What does the record list as inhibition for "CCCOc1ccc(-c2nn(-c3ccccc3)cc2/C=C2\SC(N)=NC2=O)cc1" ?
RESULT: 36

QUERY: What does the record list as inhibition for CCOc1cc2c(c([N+](=O)[O-])c1)NC(c1ccccc1)C1CC=CC21 (stereo unspecified) ?
RESULT: 17

QUERY: What does the record list as inhibition for "Nc1ccc2nn(-c3cccc4ccccc34)nc2c1" ?
RESULT: 28

----------
In this section we review reported inhibition values for a set of compounds.
- tested.target: Estrogen receptor beta (Homo sapiens) (UniProt Q92731)
- assay: displacement of fluorescent estrogen from ERbeta – cell-based, Cos7 ERbeta-GFP, flow cytometry, primary screen (AID 1210);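 also: 0% = DMSO vehicle wells and 100% = complete loss of labeled estradiol signal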
- settings: fluorescent estrogen binding, at 10 µM, stronger effect = higher value
Entry rule: numbers only, all in %.

QUERY: What does the record list as inhibition for "CC1(C)Cc2[nH]c3ccccc3c2C(C)(C)N1" ?
RESULT: 16

QUERY: What does the record list as inhibition for "O=C1N/C(=C\c2ccc(O)cc2)C(=O)c2ccccc21" ?
RESULT: 21

QUERY: What does the record list as inhibition for "CCCCc1cc2c(=O)c(-c3ccccn3)coc2cc1O" ?
RESULT: 18

QUERY: What does the record list as inhibition for "Cc1ccc(S(=O)(=O)Cc2ccc(C(=O)N3CCN(Cc4ccccc4)CC3)o2)cc1" ?
RESULT: 37

----------
- tested.target: Estrogen receptor beta (Homo sapiens)
- assay: displacement of fluorescent estrogen from ERbeta – cell-based, Cos7 ERbeta-GFP, flow cytometry, primary screen (AID 1210);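 also: 0% = DMSO vehicle wells and 100% = complete loss of labeled estradiol signal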
- settings: fluorescent estrogen binding, ligand binding inhibition, at 0.1 µM, stronger effect = higher value
In this section we review reported inhibition values for a set of compounds.
Entry rule: numbers only, all in %.

CCOC(=O)C1CCCN(C(=O)c2cc3ncc(Br)cn3n2)C1 (centres undefined) | 26
CCc1ccc2c(c1)[C@H]1OCC[C@H]1[C@@H](c1cccs1)N2 | 65
CC(=O)c1ccc2c(c1)C1C=CCC1C(C(=O)O)N2 (centres undefined) | 6
CCCC1=NN2C(=N)/C(=C\c3ccc(SCc4ccco4)o3)C(=O)N=C2S1 | 17
O=C(Oc1ccc2c(c1)OCO2)c1cc2c(s1)CCC2 | 48
O=C(Cn1ncc2c(=O)oc3ccccc3c21)Nc1nc2ccccc2s1 | 7
Nc1cc2sc(-c3ccc(C(=O)O)cc3)nc2cc1Cl | 44
Nc1ccc(-n2cnc3cc([N+](=O)[O-])ccc32)cc1 | 12

QUERY: What does the record list as inhibition for CCC(=O)Oc1ccc(C(CC)C(CC)c2ccc(OC(=O)CC)cc2)cc1 (centres undefined) ?
RESULT: 83

QUERY: What does the record list as inhibition for "CC1(C)CC(=O)c2c(oc3cc(O)c(O)cc23)C1" ?
RESULT: 3

QUERY: What does the record list as inhibition for "C=CCn1c(=O)c(C#N)cc2c(=O)n3ccccc3nc21" ?
RESULT: 22

QUERY: What does the record list as inhibition for "COc1ccc2c(c1)c(=O)oc1cc(OCC(=O)NC3CCCCC3)ccc12" ?
RESULT: 22

QUERY: What does the record list as inhibition for COc1ccc(C2Nc3ccccc3C(=O)N2Cc2ccccc2)cc1Cn1nnc2ccccc21 (centres undefined) ?
RESULT: 45

QUERY: What does the record list as inhibition for "CC(=O)c1cccc(NC(=O)Cc2cccs2)c1" ?
RESULT: 23

----------
- tested.target: Estrogen receptor beta (Homo sapiens) (UniProt Q92731)
- assay: displacement of fluorescent estrogen from ERbeta – cell-based, Cos7 ERbeta-GFP, flow cytometry, primary screen (AID 1210);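 also: 0% = DMSO vehicle wells and 100% = complete loss of labeled estradiol signal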
- settings: fluorescent estrogen binding, ligand binding inhibition, at 0.1 µM, stronger effect = higher value
Each entry belongs to exactly one class, chosen by where its inhibition falls: lo: < 10%; med: ≥ 10% and < 20%; hi: ≥ 20%

CCC1(CC)NC(=O)N(CC(=O)Nc2sc3c(c2C(N)=O)CCC3)C1=O | lo
O=C(CSc1nc2ccccc2c(=O)[nH]1)c1ccc(O)c(O)c1 | med
CC1(C)OC(C)(C)/C(=C/Nc2ccc(O)cc2)C1=O | hi
COc1cc2c(cc1O)CC[n+]1cc3c(OC)c(OC)ccc3cc1-2 | hi
Cc1cc(=O)[nH]c(SCC(=O)NCc2ccco2)n1 | lo
COc1ccc(OC)c(NC(=O)CSc2nc3ccccc3c3nc4ccccc4n23)c1 | med
O=Cc1cn(-c2ccccc2)nc1-c1cc2c(ccc3ccccc32)oc1=O | hi
COc1cc(C2Nc3c(F)cccc3C3C=CCC32)cc(Br)c1OC (configuration not stated) | hi

QUERY: Exercise: read the entry O=C(c1cccs1)N1N=C(c2ccccc2)CC1c1ccc(O)cc1 (configuration not stated) and state which class it falls under.
RESULT: hi

QUERY: Exercise: read the entry "Cc1ccccc1NC(=O)CSc1nnc(-c2ccco2)c(-c2ccco2)n1" and state which class it falls under.
RESULT: hi

----------
- tested.target: Estrogen receptor beta (Homo sapiens) (UniProt Q92731)
- assay: displacement of fluorescent estrogen from ERbeta – cell-based, Cos7 ERbeta-GFP, flow cytometry, primary screen (AID 1210);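 also: 0% = DMSO vehicle wells and 100% = complete loss of labeled estradiol signal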
- settings: fluorescent estrogen binding, at 10 µM, stronger effect = higher value
Class class 1: inhibition at least 20%. Class class 0: inhibition below 20%.

Before answering, review these 5 worked examples.
COc1ccc(C2CC(c3ccccc3)=NN2c2ccc(N)cc2)cc1 (stereo not given) | class 1
Cc1nc2ccccc2n1-c1cc(C(C)(C)C)c(O)c(C(C)(C)C)c1 | class 0
O=S(=O)(/N=C(/Sc1ccccc1)c1ccccc1)c1ccccc1 | class 1
COc1ccc(-c2ccc(-c3noc(-c4cccs4)n3)c(OC)n2)cc1 | class 1
COc1cccc([C@@H]2Oc3ccc(OC)cc3C(=O)[C@H]2O)c1 | class 1

QUERY: State whether the measured inhibition reaches 20%, counting equality as reaching it, for "COc1ccc(OC)c(NC(=O)c2cc(-c3ccc(C)cc3O)n[nH]2)c1"
RESULT: class 0

QUERY: State whether the measured inhibition reaches 20%, counting equality as reaching it, for "C1=C(N2CCOCC2)/C(=C/c2nc3ccccc3[nH]2)CC1"
RESULT: class 1

QUERY: State whether the measured inhibition reaches 20%, counting equality as reaching it, for O=C(NNC(=O)c1ccc(SCC2CCCO2)c([N+](=O)[O-])c1)c1ccc(Cl)c([N+](=O)[O-])c1 (stereo not given)
RESULT: class 0

QUERY: State whether the measured inhibition reaches 20%, counting equality as reaching it, for CN1C(=O)CC(C(=O)O)SC1=Nc1cc(Cl)c(O)c(Cl)c1 (stereo not given)
RESULT: class 1

QUERY: State whether the measured inhibition reaches 20%, counting equality as reaching it, for "COc1ccc2[nH]c3nc(SCc4nnc(-c5ccc(C)cc5)o4)nnc3c2c1"
RESULT: class 1

QUERY: State whether the measured inhibition reaches 20%, counting equality as reaching it, for "CC1(C)CC(=O)c2cn(-c3ccc(Cl)cc3)c(=N)c(C#N)c2C1"
RESULT: class 0

QUERY: State whether the measured inhibition reaches 20%, counting equality as reaching it, for "C=CCn1c(=O)c(C#N)cc2c(=O)n3ccccc3nc21"
RESULT: class 1

QUERY: State whether the measured inhibition reaches 20%, counting equality as reaching it, for CSCCC(NC(=O)c1ccco1)C(=O)OCC(=O)Nc1sccc1C#N (stereo not given)
RESULT: class 0

QUERY: State whether the measured inhibition reaches 20%, counting equality as reaching it, for "COc1ccc2c(c1)c(=O)oc1cc3oc(C)c(C)c3cc12"
RESULT: class 1

QUERY: State whether the measured inhibition reaches 20%, counting equality as reaching it, for "Nc1ccc2nc(-c3ccc(N)c(Cl)c3)[nH]c2c1"
RESULT: class 1
